- System: CYP3A4 (Homo sapiens, UniProt P08684)
- Sequence (P08684 whole entry): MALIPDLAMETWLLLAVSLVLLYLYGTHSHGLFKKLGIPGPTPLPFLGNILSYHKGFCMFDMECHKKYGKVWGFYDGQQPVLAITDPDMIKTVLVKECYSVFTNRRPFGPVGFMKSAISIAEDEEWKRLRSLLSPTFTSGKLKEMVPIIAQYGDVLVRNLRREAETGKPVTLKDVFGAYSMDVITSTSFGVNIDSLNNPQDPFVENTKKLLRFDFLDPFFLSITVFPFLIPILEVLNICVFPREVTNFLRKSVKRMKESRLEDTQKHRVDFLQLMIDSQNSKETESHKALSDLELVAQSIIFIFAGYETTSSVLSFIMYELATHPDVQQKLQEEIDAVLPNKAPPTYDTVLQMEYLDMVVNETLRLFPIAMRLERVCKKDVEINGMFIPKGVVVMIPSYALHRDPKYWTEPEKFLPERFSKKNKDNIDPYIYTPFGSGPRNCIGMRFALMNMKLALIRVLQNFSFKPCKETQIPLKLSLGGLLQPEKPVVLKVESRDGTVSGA
- Assay Info: Inhibition of CYP3A4 in human liver microsomes using midazolam as substrate assessed as reduction in 1-OH-midazolam formation at 5 uM by LC/MS/MS analysis
- Assay type: ADME
- Test Context: probe midazolam
Observed Property: inhibition at 5 µM

Problem: Given the entry C[C@@H]1c2ncn(-c3ccc(F)cn3)c2CCN1C(=O)c1cccc(C(F)(F)F)c1Cl , report its measured inhibition at 5 µM.
Solution: 63%

---

- System: CYP3A4 (Homo sapiens)
- Assay Info: Inhibition of CYP3A4 in human liver microsomes using midazolam as substrate assessed as reduction in 4-OH-midazolam formation at 0.01 uM by LC/MS/MS analysis
- Test Context: probe midazolam
Observed Property: inhibition at 0.01 µM (%)
Report the figure in % without appending any unit label.

Problem: Given the entry CC(=O)N1CCN(c2ccc(OCC3COC(Cn4ccnc4)(c4ccc(Cl)cc4Cl)O3)cc2)CC1 (stereo unspecified) , report its measured inhibition at 0.01 µM.
Solution: 57

---

- System: CYP3A4 (Homo sapiens)
- Assay Info: Inhibition of CYP3A4 in human liver microsomes using midazolam as substrate assessed as reduction in 1-OH-midazolam formation at 10 uM by LC/MS/MS analysis
- Assay type: ADME
- Test Context: probe midazolam
Observed Property: inhibition at 10 µM (%)
Report the figure in % without appending any unit label.

Problem: Given the entry C[C@@H]1c2ncn(-c3ccc(F)cn3)c2CCN1C(=O)c1cccc(C(F)(F)F)c1Cl , report its measured inhibition at 10 µM.
Solution: 74

---

- System: CYP3A4 (Homo sapiens)
- Assay Info: Inhibition of CYP3A4 in human liver microsomes using midazolam as substrate assessed as reduction in 1-OH-midazolam formation at 0.01 uM by LC/MS/MS analysis
- Test Context: probe midazolam
Observed Property: inhibition at 0.01 µM (%)
Report the figure in % without appending any unit label.

Problem: What value of inhibition at 0.01 µM on CYP3A4 (Homo sapiens) does CC(=O)N1CCN(c2ccc(OCC3COC(Cn4ccnc4)(c4ccc(Cl)cc4Cl)O3)cc2)CC1 (stereo unspecified) [KETOCONAZOLE] have?
Solution: 53

---

- Assay Info: Volume of distribution at steady state in cynomolgus monkey at 1 mg/kg, iv after 0.033 to 24 hrs by LC/MS/MS analysis
- Type: ADME, organism-based, Macaca fascicularis
- Test Context: in vivo, read-out: Vdss
Observed Property: Vd
Don't forget the unit after the value.

Problem: Given the entry C[C@@H]1c2ncn(-c3ccc(F)cn3)c2CCN1C(=O)c1cccc(C(F)(F)F)c1Cl , report its measured Vd.
Solution: 2.1 L/kg

---

The reader will find reported pIC50 values listed item by item below.
- System: P2X purinoceptor 7 (Mus musculus, UniProt Q9Z1M0)
- Sequence (Q9Z1M0 whole entry): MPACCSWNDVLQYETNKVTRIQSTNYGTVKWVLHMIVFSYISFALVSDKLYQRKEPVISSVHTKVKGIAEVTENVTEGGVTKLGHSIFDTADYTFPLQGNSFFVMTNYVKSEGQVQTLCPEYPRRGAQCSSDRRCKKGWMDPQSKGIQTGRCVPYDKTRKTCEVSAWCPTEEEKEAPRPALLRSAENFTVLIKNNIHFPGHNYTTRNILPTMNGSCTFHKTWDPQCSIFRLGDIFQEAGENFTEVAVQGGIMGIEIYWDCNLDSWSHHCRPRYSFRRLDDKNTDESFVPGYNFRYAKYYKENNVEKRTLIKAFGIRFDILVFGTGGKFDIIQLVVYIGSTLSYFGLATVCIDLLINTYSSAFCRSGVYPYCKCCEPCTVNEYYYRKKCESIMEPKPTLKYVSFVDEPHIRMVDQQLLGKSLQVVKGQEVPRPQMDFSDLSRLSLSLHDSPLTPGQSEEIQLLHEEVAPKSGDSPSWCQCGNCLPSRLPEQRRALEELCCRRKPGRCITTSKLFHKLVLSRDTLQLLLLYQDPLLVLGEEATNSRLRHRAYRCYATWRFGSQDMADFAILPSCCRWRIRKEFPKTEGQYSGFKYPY
- Assay Info: Antagonist activity at recombinant mouse P2X7 receptor expressed in human 1321N1 cells assessed as inhibition of Bz-ATP-induced Ca2+ flux preincubated for 30 mins followed by agonist addition measured after 180 sec by calcium-4 dye based FLIPR assay
- Format: cell-based
# pIC50 = -log10(concentration in molar units)

[
  {
    "Query Smiles": "C[C@@H]1c2ncn(-c3ncc(F)cn3)c2CCN1C(=O)c1cccc(C(F)(F)F)c1Cl",
    "pIC50": 7.42
  }
]

Problem: Given the entry C[C@@H]1c2ncn(-c3ccc(F)cc3)c2CCN1C(=O)c1cccc(C(F)(F)F)c1Cl , report its measured pIC50.
Solution: 7.35

Problem: Given the entry C[C@@H]1c2ncn(-c3ccccn3)c2CCN1C(=O)c1cccc(C(F)(F)F)c1Cl , report its measured pIC50.
Solution: 7.70

Problem: Given the entry C[C@@H]1c2ncn(-c3ccc(F)cn3)c2CCN1C(=O)c1cccc(C(F)(F)F)c1Cl , report its measured pIC50.
Solution: 7.14
